Every entry's value here was drawn from ChEMBL document CHEMBL3808367.

# Tested on: Human immunodeficiency virus 1
# Protocol Text: Resistance index, ratio of EC50 for […] resistant HIV1 A17 harboring reverse transcriptase K103N/Y181C double mutant infected in human MT2 cells to EC50 for HIV1 3B infected in human MT2 cells
# Assay type: functional
Reported Ratio EC50 values are given for each entry in this list.
Answer with the value's number alone.

The examples below pair each entry with its known result.
smiles_repr=CNC(=O)c1cc(N)c(Nc2ccc(C#N)cc2)cc1Oc1c(Br)cc(CCC#N)cc1OC target_system="Human immunodeficiency virus 1" metric="Ratio EC50" data_value=14
smiles_repr=CCOCc1cc(N)c(Nc2ccc(C#N)cc2)cc1Oc1c(C)cc(CCC#N)cc1C target_system="Human immunodeficiency virus 1" metric="Ratio EC50" data_value=12
smiles_repr=COCc1cc(N)c(Nc2ccc(C#N)cc2)cc1Oc1c(C)cc(CCC#N)cc1C target_system="Human immunodeficiency virus 1" metric="Ratio EC50" data_value=0.9
smiles_repr=Cc1cc(CCC#N)cc(C)c1Oc1cc(Nc2ccc(C#N)cc2)c(N)cc1C(=O)N(C)C target_system="Human immunodeficiency virus 1" metric="Ratio EC50" data_value=45
smiles_repr=CC(=O)OCc1cc(N)c(Nc2ccc(C#N)cc2)cc1Oc1c(C)cc(CCC#N)cc1C target_system="Human immunodeficiency virus 1" metric="Ratio EC50" data_value=3.4

Entry under review: `Cc1cc(CCC#N)cc(C)c1Oc1cc(Nc2ccc(C#N)cc2)c(N)cc1CN(C)C` . Reported Ratio EC50?
1.1

Can you handle `Cc1cc(CCC#N)cc(C)c1Oc1cc(Nc2ccc(C#N)cc2)c(N)cc1Cl` next?
2.7
